target: HKU4 HR2 peptide (HKU4), A3EX94; assay: peptide ELISA
Sequence (A3EX94 1228-1249 limits assumed): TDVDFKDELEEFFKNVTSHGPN
For each of the binders below, state its EC50.
I only need the number, in µg/mL, no unit after it.

IN: Quick one: EC50 of hr2.015 (antibody, V domains shown) VH: QVQLVQSGAEVKKPGASVKVSCKASGYTFSSYYVNWVRQAPGQGLEWLGIINRSGSSTIYAQKFQGRVTMTRDTSTSTVYLELSSLRSEDTAVYYCARDQDHALHWGQGTLVTVSS VL: QSVLTQPPSVSAAPGQKVTISCSGSSSNIGSNYVSWYQQLPGTAPKLLIYDNSERPSGIPDRFSGSRSGTSATLGITGLQTGDEADYYCGTWDTSLSAWVFGGGTKLTVL ?
OUT: 0.05

IN: Quick one: EC50 of hr2.020 (antibody, V domains shown) VH: EVQLVQSGAEVKKPGESLKISCKGSGYRFASHWIGWVRQMPGKGLQWMGIIYPGDSDTKYSPSFQGQVTISADKSINTVYLHWTSLKASDTAVYYCARRPPHLDGGDSPIRFDHWGQGTLVTVSS VL: QSVLTQPPSASGTPGQRVTISCSGSRSNIGSNDVYWYQQFPGTAPKLLIYRNNQRPSGVPDRFSGSKSGTSASLAISGLRSEDEADYYCATWDDRLTGVFGGGTKLTVV ?
OUT: 0.0352

IN: Quick one: EC50 of hr2.086 (antibody, V domains shown) VH: EVQLLESGGGLVQPGGYLRLSCAASGFTFSSYAMSWVRQAPGKGLEWVSVISGGGGSAYYADSVKGRFTISRDNSKNTLYLQMNSLRAEDTAVYYCAKIGMILVFDYWGQGTLVTVSS VL: EIVLTQSPGTLSLSPGERATLSCRASQSVSNNYLAWYQQKPGQAPRLLISGASSRATGIPDRFSGSGSGTDFTLTISRLEPEDFAVYYCQQYGSSPPTFGQGTKVEIK ?
OUT: 0.0269
